System: CDK4;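 further: KINOMEscan kinase panel screen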
recorded.conditions: concentration: 1 μM, replicates: in singlicate; n = 1
recorded.metric: %Inh (%)
Numeric answer only, unit % assumed.

For reference, reported %Inh for CC(C)c1nc(-c2ccc(F)c(NS(=O)(=O)c3c(F)cccc3F)c2)c(-c2ccnc(Nc3ccc(N4CCOCC4)nc3)n2)s1 stands at 87

For record CN(c1ccc2c(c1)nc(NCc1ccccc1)n2C)c1ccnc(Nc2ccc(CS(C)(=O)=O)cc2)n1.Cl the listed %Inh is 34

Noted for Cl.Cl.NC(CNC(=O)c1cc(Br)c(-c2ccnc3[nH]ccc23)s1)c1ccccc1 (stereo not shown) : its %Inh reads 23

The molecule listed as Fc1cc(Cl)ccc1Nc1ccnc2cc(-c3ccc(CN4CCOCC4)o3)ccc12 shows %Inh equal to 0
